- System: MEK1
- Construct: gene MAP2K1
- Experimental parameters: concentration: 1 μM, replicates: in singlicate; n = 1;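 note: KINOMEscan kinase panel screen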
Endpoint label: %Inh
Remember to follow the number with its unit.

// %Inh lookup, key: O=C1NC(=O)C(c2ccc(Cl)cc2)=C1Nc1ccc(O)cc1 [SB-340867]
0%

// %Inh lookup, key: CC[C@@H]1CO[C@H](C(=O)Nc2ccccc2)CN1c1cc(-c2ccc3c(N)n[nH]c3c2)nc(NC)n1 [GSK2376236]
5%

----------
- Test system: RSK3(Kin.Dom.2-C-terminal)
- Construct: gene RPS6KA2
- Experimental parameters: concentration: 1 μM, replicates: in singlicate; n = 1
Item-by-item account of %Inh
# unit: % | format: bare number

Known results for molecules:
> print(dat)
                                   molecule  endpoint.label  unit.descriptor  numeric.result
1  O=C1NC(=O)C(c2ccc(Cl)cc2)=C1Nc1ccc(O)cc1            %Inh                %               0
2  CNCc1ccc2nc(NC(=O)c3ccc(C(C)(C)C)cc3)cn2c1            %Inh                %               0
3  COc1ccc(Nc2nccc(NCCNC(=O)Nc3cc(C)ccc3C)n2)cc1            %Inh                %               0
4           Fc1ccc(-c2nc[nH]c2-c2ccncc2)cc1            %Inh                %               6
5  COc1cccc(C2=C(Nc3cc(Cl)c(O)c(Cl)c3)C(=O)NC2=O)c1            %Inh                %               0

Please look at the following molecule next.
// %Inh lookup, key: CC(=O)c1cccc(NC(=O)NC2CCN(c3ccnc(Nc4ccc(F)cc4)n3)C2)c1 (stereo not shown)
6
